Ref: paper PMC6481345

measurement_target: MEK5 (Homo sapiens, UniProt Q13163)
Construct: we tested the endogenous kinome response to SAB298; host or cells: YUSIV and YUSIK melanoma cell lysates
Sequence (Q13163 whole entry): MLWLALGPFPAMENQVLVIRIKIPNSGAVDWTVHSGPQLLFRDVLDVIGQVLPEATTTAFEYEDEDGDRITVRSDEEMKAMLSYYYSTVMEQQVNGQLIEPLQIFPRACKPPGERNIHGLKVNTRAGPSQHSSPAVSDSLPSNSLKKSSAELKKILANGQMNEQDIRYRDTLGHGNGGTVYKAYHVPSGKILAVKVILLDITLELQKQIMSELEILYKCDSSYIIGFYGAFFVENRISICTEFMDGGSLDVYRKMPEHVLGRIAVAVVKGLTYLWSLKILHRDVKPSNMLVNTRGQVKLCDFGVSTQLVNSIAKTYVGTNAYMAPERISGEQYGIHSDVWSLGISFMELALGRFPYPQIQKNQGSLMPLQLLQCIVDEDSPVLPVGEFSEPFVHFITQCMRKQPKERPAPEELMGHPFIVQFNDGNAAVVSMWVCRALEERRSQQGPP
experiment_summary: KiNativ in situ kinase profiling in melanoma cell lysates
Format: binding
reported_conditions: MEK5 in YUSIK lysate; 3-point dose response
Procedure: The effect of SAB298 on a panel of 36 recombinant kinases, was screed with the radioisotope filter binding assay employing 10 concentrations of the compound with 10 µM ATP (Reaction Biology Corporation, Malvern, PA). In addition, we tested the endogenous kinome response to SAB298 (0.05 µM, 0.5 µM and 5 µM) in lysates from two melanoma cell lines (YUSIV and YUSIK) employing the KiNativ® platform (ActivX Biosciences Inc., La Jolla, CA). […]

| compound | measurement_target | IC50 / µM |
| --- | --- | --- |
| Nc1ncnc2c1c(-c1ccc(Oc3ccccc3)cc1)nn2C[C@@H]1SSC[C@@H]1O [SAB298] | MEK5 (Homo sapiens, UniProt Q13163) | 1.5 |
